Reported values of TGI for individual entries
System: A549 NSCLC
Experiment: NCI tumour cell line growth inhibition, 48 h

compound="Cc1cn(C2CC(O)C(Cn3nncc3Cn3ncc(=O)[nH]c3=O)O2)c(=O)[nH]c1=O (stereo not given)" assayreadout=TGI valueobserved="> 100 µM"
compound="c1n[nH]cc1C12C3C4C5C3C1C5C42 (stereo not given)" assayreadout=TGI valueobserved="> 100 µM"
compound=CN1CCC/C1=C1/C(=O)N(c2ccccc2)N=C1c1ccc[nH]1 assayreadout=TGI valueobserved="> 100 µM"
compound="CC(C)(C)c1cc(C(=O)O)c2c(c1)C(=O)OC2(c1ccccc1)c1ccccc1C(=O)O (stereo not given)" assayreadout=TGI valueobserved="> 100 µM"
compound="CC(C)N(C(=O)C12C3C4C1C1C2C3C41C(=O)N(C(C)C)C(C)C)C(C)C (stereo not given)" assayreadout=TGI valueobserved="> 50 µM"
compound=Cc1ccc(-n2c(-c3cc4c([nH]c5ccccc54)c(-c4cccc(O)c4)n3)n[nH]c2=S)cc1 assayreadout=TGI valueobserved="10.4 µM"
compound=O=c1n(-c2ccccc2)c(=O)n2c(-c3ccccc3)c(-c3ccccc3)n12 assayreadout=TGI valueobserved="> 100 µM"
compound="Cc1ccc(S(=O)(=O)N2CC(CCN)c3ccccc32)cc1 (stereo not given)" assayreadout=TGI valueobserved="32.5 µM"
compound="OC1COC(OCc2ccccc2)C(O)C1O (stereo not given)" assayreadout=TGI valueobserved="> 100 µM"

TGI lookup needed for O=c1[nH]c(=S)[nH]c(-c2ccccc2)c1Cc1c(O)ccc2ccccc12 , thanks.
> 100 µM

====

Tested on: KM12 colon
Assay: NCI tumour cell line growth inhibition, 48 h
Reported values of TGI for individual entries

compound=c1cncc(CSc2ncnc3nc[nH]c23)c1 assayreadout=TGI valueobserved="> 100 µM"

TGI lookup needed for COc1ccc(S(=O)(=O)N2CCNCC2)cc1OC , thanks.
> 100 µM

Repeat with FC(F)(F)c1cccnc1Sc1nc2ccccc2s1
> 100 µM

Repeat with Nc1nc(-c2ccc(Cl)cc2)nc2c1sc(=S)n2-c1ccccc1
> 100 µM

Repeat with O=c1[nH]c(=O)n(C2C(CO)OC(CO)C2O)cc1F (configuration not stated)
> 100 µM

Repeat with Cc1ccc(C2=Nc3ccccc3SC(c3cccc4c3OCO4)C2)cc1 (configuration not stated)
32.5 µM

Repeat with COC1=C2CC(C)CC(OC)C(OC(=O)CCCN)C(C)/C=C(\C)C(OC(N)=O)C(OC)/C=C\C=C(/C)C(=O)NC(=CC1=O)C2=O (configuration not stated)
25.7 µM

Repeat with CCCCCCCCCCCCC(O)C(=O)O (configuration not stated)
> 100 µM

Repeat with Nc1nc2ncn(CC(O)CO)c2c(=O)[nH]1 (configuration not stated)
> 100 µM

Repeat with Cn1c(C(=O)c2cccc3ccccc23)nc2ccccc21
> 100 µM

Repeat with CC(C)N(C(=O)C12C3C4C1C1C2C3C41C(=O)N(C(C)C)C(C)C)C(C)C (configuration not stated)
> 50 µM

Repeat with C=C(C)CCC1CC=[N+]([O-])OC1C(C)(C)C (configuration not stated)
64.8 µM

Repeat with Nc1ccc(-c2nc3ccc(F)cc3s2)cc1I
> 100 µM

Repeat with COC(=O)c1cc([N+](=O)[O-])cc([N+](=O)[O-])c1Cl
23.6 µM

Repeat with O=C(/C=C(\Nc1ccccc1O)c1ccc(Br)cc1)C(Cl)(Cl)Cl
13.9 µM
